# Tested on: CAL-51
# ASSAY NOTES: normalised response (% of control), CellTox Green; higher = less cell death (100 = DMSO, 0 = benzethonium chloride kill control)
# RUN PARAMETERS: incubation time: 72 h
Here, each record is paired with measured normalised response data.
Kindly answer with a numeric value in %, unit omitted.

| COMPOUND | normalised response [%] |
| --- | --- |
| N#CC[C@H](C1CCCC1)n1cc(-c2ncnc3[nH]ccc23)cn1 [Ruxolitinib] (1000 nM) | 111 |

Give normalised response for CCN1CCN(c2ccc(Nc3cc(N(C)C(=O)Nc4c(Cl)c(OC)cc(OC)c4Cl)ncn3)cc2)CC1 [NVP-BGJ398] (10 nM) 76

Give normalised response for CN(C)C/C=C/C(=O)Nc1cc2c(Nc3ccc(F)c(Cl)c3)ncnc2cc1O[C@H]1CCOC1 [Afatinib] (100 nM) 107

Values were extracted from the supplement of paper PMC4862054.
